# Test system: LOX IMVI melanoma
# assay.info: NCI tumour cell line growth inhibition, 48 h
Returns met if the recorded TGI is greater than or equal to 20 µM, and not met otherwise.

Decide: is the reported value of TGI for O=C(/C=C/c1ccc(Cl)cc1)c1ccc(Cl)s1 equal to or greater than 20 µM?
met

Decide: is the reported value of TGI for CC/C(=C(/c1ccc(/C=C/C(=O)O)cc1)c1ccc2[nH]ncc2c1)c1ccc(F)cc1Cl equal to or greater than 20 µM?
met

Decide: is the reported value of TGI for COc1ccc(C(=O)/C=C/c2ccc(OCc3ccccc3)c(OC)c2)cc1OC equal to or greater than 20 µM?
met

Decide: is the reported value of TGI for NC(=O)C(=O)Cc1nc2ccccc2s1 equal to or greater than 20 µM?
met

Decide: is the reported value of TGI for Nc1ncc(Sc2ccccc2C(=O)O)s1 equal to or greater than 20 µM?
met

Decide: is the reported value of TGI for CC1=NN(c2nc(N)nc(/C=C\c3ccccc3)n2)C(C)(C)C1 equal to or greater than 20 µM?
not met

Decide: is the reported value of TGI for CCOC(=O)c1cc2cc(OCc3ccccc3)ccc2[nH]1 equal to or greater than 20 µM?
met

Decide: is the reported value of TGI for COC(=O)[C@]1(C)[C@H]2C[C@H]3O[C@H]4[C@H](O)[C@@H](O)OC(CC(O)C(C5=CC(=O)OC5)C(C5=CC(=O)OC5)C(O)CC56CCCCC7[C@@H](C)[C@H](C[C@H]8[C@](C)(C(=O)OC)[C@H](O)CC[C@]78C)O[C@H]([C@@H](O)[C@H](O)O5)[C@H]6O)(CCCCC([C@@H]3C)[C@]2(C)CC[C@@H]1O)[C@H]4O (stereo partly drawn) equal to or greater than 20 µM?
not met
